Test system: UACC-62 melanoma
measurementNotes: NCI-60 one-dose screen, 48 h (100 = growth as untreated, 0 = no growth, -100 = all killed)
testConditions: 10 µM unless noted
Compounds without any hit were thinned out: in the full panel of roughly 83,000, 20% have a hit.
valueKind: growth (%)
Output spec: scalar in %, unitless text.

growth of c1ccc(CNc2ncnc3ccc(-c4cnc5[nH]ncc5c4)cc23)cc1 on UACC-62 melanoma?
76

growth of CS(=O)(=O)Nc1ccc(-c2nn(-c3ccc(S(C)(=O)=O)cc3)cc2/C=C/C(=O)c2ccc(NC(=O)CO[N+](=O)[O-])cc2)cc1 on UACC-62 melanoma?
100

growth of Clc1ccc2oc3c(OCCCn4ccnc4)c4ccccc4nc3c2c1 on UACC-62 melanoma?
83.1

growth of N#Cc1c(-c2ccc(Cl)cc2)nc(SCc2ccccc2)nc1N1CCNCC1 on UACC-62 melanoma?
89.8

growth of O=C1[C@H]2Cc3c([nH]c4ccccc34)[C@@H](c3ccc(Br)cc3)N2C(=O)CN1C1CCN(Cc2ccccc2)CC1 on UACC-62 melanoma?
84

growth of COc1cc(/C=C/C(=O)c2cc(OC)c(OC)c(OC)c2)ccc1OCc1ccccc1 on UACC-62 melanoma?
38.8

growth of CCC/C=C/C=C/C(=O)N[C@@H](Cc1cc(F)cc(F)c1)C(=O)N[C@@H]1C(=O)N2CCC[C@H]2C(=O)N2CCCC[C@H]2C(=O)N[C@@H](C)C(=O)N2C[C@H](C)C[C@H]2C(=O)O[C@H]1C on UACC-62 melanoma?
13.6

growth of CSc1ccc2c(c1)N(C(=O)/C(C#N)=C/c1c[nH]c3ccccc13)c1ccccc1S2 on UACC-62 melanoma?
41.8

###

Tested on: NCI-H322M lung
measurementNotes: NCI-60 one-dose screen, 48 h (100 = growth as untreated, 0 = no growth, -100 = all killed)
testConditions: 10 µM unless noted
Compounds without any hit were thinned out: in the full panel of roughly 83,000, 20% have a hit.
valueKind: growth (%)
Output spec: scalar in %, unitless text.

// query growth value for entry Cc1c(Nc2nnc(SCC(=O)Nc3sc4c(c3C#N)CCCC4)s2)c(=O)n(-c2ccccc2)n1C
98.9

// query growth value for entry [Cl][Ru].c1ccc(-c2cccc(-c3ccccn3)n2)nc1.c1ccc(-c2ccnc3c2ccc2c(-c4ccccc4)ccnc23)cc1
76.6

// query growth value for entry NS(=O)(=O)c1cccc(Nc2nc(SCC(=O)c3ccc(Br)cc3)nc3ccccc23)c1
97.6

// query growth value for entry Clc1ccc2c(OCCCN3CCOCC3)c3oc4ccccc4c3nc2c1
36

// query growth value for entry O=C(N/N=C/c1ccc(Cl)s1)c1[nH]c2ccc(Br)cc2c1-c1ccccc1
49.4

###

Test system: SK-MEL-2 melanoma
measurementNotes: NCI-60 one-dose screen, 48 h (100 = growth as untreated, 0 = no growth, -100 = all killed)
testConditions: 10 µM unless noted
Protocol: Growth inhibition of the SK-MEL-2 human tumor cell line is measured as a screen for anti-cancer activity. Cells are grown in 96 well plates and exposed to the test compound for 48 hours. Compounds are tested at a single concentration, which is 10^-5 M for most compounds. The reported endpoint is percent growth (GI% or GIPRCNT), where numbers from 0 - 100% represent growth inhibition, and numbers from -100% - 0 represent cell death. For example, a value of 40 represents 60% growth inhibition. […]
The panel holds about 83,000 compounds, 20% with a hit somewhere; the sample as a whole holds those more often.
valueKind: growth (%)
Output spec: scalar in %, unitless text.

growth of COc1cccc(COc2ccc(/C=C3/C(=O)Nc4cc(Cl)ccc43)cc2)c1 on SK-MEL-2 melanoma?
107

growth of N/C(=N\c1nc2c(Br)cccc2s1)C(Br)Br on SK-MEL-2 melanoma?
-42.1

growth of Nc1ncc(-c2ccc3ncnc(N4CCc5cc(F)c(Cl)cc54)c3c2)cc1CO on SK-MEL-2 melanoma?
-63.4

growth of CC(C)(C)Nc1nc2c(OCCc3ccccc3)cccn2c1-c1ccc(O)cc1 on SK-MEL-2 melanoma?
85.1

growth of Cn1cc(-c2cc(N)n3nc(-c4cn(C)c5ccc(F)cc45)cc3n2)c2cc(F)ccc21 on SK-MEL-2 melanoma?
110

growth of CCOC(=O)c1sc(N)c(C(=O)OCC)c1C on SK-MEL-2 melanoma?
75.2

###

System: SK-MEL-2 melanoma
measurementNotes: NCI-60 one-dose screen, 48 h (100 = growth as untreated, 0 = no growth, -100 = all killed)
testConditions: 10 µM unless noted
Procedure: Growth inhibition of the SK-MEL-2 human tumor cell line is measured as a screen for anti-cancer activity. Cells are grown in 96 well plates and exposed to the test compound for 48 hours. Compounds are tested at a single concentration, which is 10^-5 M for most compounds. The reported endpoint is percent growth (GI% or GIPRCNT), where numbers from 0 - 100% represent growth inhibition, and numbers from -100% - 0 represent cell death. For example, a value of 40 represents 60% growth inhibition. […]
This is part of a sample that, as a whole, favours compounds with a hit. Of some 83,000 tested, about 20% had one in any assay.
valueKind: growth (%)
Output spec: scalar in %, unitless text.

// query growth value for entry N#Cc1nc(-c2ccccc2)oc1S(=O)(=O)N1CCCCC1
97.9

// query growth value for entry O=C(c1ccc(Cl)cc1)C1[C@H](c2ccc(Cl)cc2)[C@@H](c2ccccc2)NC12C(=O)Nc1ccc(Br)cc12 (stereo not given in full)
38.7

// query growth value for entry Fc1ccc(-c2nc(C(Cl)Cl)nc3cc(-c4ccccc4)nn23)cc1
115

// query growth value for entry O=c1[nH]c2ccc(Cl)cc2cc1CSc1ccccc1Nc1nccc(-c2ccc(Cl)cc2)n1
129

// query growth value for entry CCCCN1C(=O)/C(=c2\sc3n(c2=O)C2C(NN=3)N(CC)C(=O)N2CC)c2cc(Cl)ccc21 (stereo not given)
79.9

###

System: SK-MEL-2 melanoma
measurementNotes: NCI-60 one-dose screen, 48 h (100 = growth as untreated, 0 = no growth, -100 = all killed)
testConditions: 10 µM unless noted
The panel holds about 83,000 compounds, 20% with a hit somewhere; the sample as a whole holds those more often.
Answer each item with its documented growth.
Output spec: scalar in %, unitless text.

growth of O=C1c2c(c3c4cc(Br)ccc4[nH]c3c3ccc4ccccc4c23)C(=O)N1CCO on SK-MEL-2 melanoma?
110

growth of C#Cc1nc(C2=C(C)C(OC(C)=O)/C(=N/OC(C)=O)C2)cs1 (stereo not given) on SK-MEL-2 melanoma?
92.8

growth of CC(C)(C)OC(=O)N1C(=O)c2c(c3c4ccccc4[nH]c3c3ccc4ccccc4c23)C1=O on SK-MEL-2 melanoma?
42.7

growth of O=C1c2c(c3c4cccnc4[nH]c3c3ccc4ccccc4c23)C(=O)N1CCO on SK-MEL-2 melanoma?
138

growth of CCN1C(=S)N(c2ccccc2)C2NC(=O)N(/N=C/C=C/c3ccccc3OC)C21 (stereo not given) on SK-MEL-2 melanoma?
120

###

System: EKVX NSCLC
measurementNotes: NCI-60 one-dose screen, 48 h (100 = growth as untreated, 0 = no growth, -100 = all killed)
testConditions: 10 µM unless noted
The panel holds about 83,000 compounds, 20% with a hit somewhere; the sample as a whole holds those more often.
Answer each item with its documented growth.
Output spec: scalar in %, unitless text.

// query growth value for entry CSc1ccc2c(c1)N(C(=O)/C(C#N)=C/c1c[nH]c3ccccc13)c1ccccc1S2
34.8

// query growth value for entry CS(=O)(=O)c1ccc(-c2nc3ccccn3c2-c2nc3ccc([N+](=O)[O-])cc3[nH]2)cc1
91

// query growth value for entry OC1CCc2c(-c3ccc4ncnc(N5CCc6cc(F)c(Cl)cc65)c4c3)cncc21 (centres undefined)
27.1

// query growth value for entry Nc1cc(-c2c[nH]c3ccc(Cl)cc23)nc2cc(-c3c[nH]c4ccc(Cl)cc34)nn12
54.4

// query growth value for entry CNC(=O)c1cc(-c2ccc(NC(=O)Nc3ccc(N4CCN(C)CC4)c(C(F)(F)F)c3)cc2)nc2cccnc12
-74

// query growth value for entry NS(=O)(=O)c1cccc(Nc2nc(SCC(=O)c3ccc(Br)cc3)nc3ccccc23)c1
64.8

// query growth value for entry O=C1Nc2ccc(Cl)cc2/C1=C/c1ccc(OCC(=O)c2ccc(Br)cc2)cc1
81.6

// query growth value for entry COc1cc2nc(-c3ccc(Cl)cc3)cc(OCCCNCC3CCCO3)c2cc1OC (centres undefined)
67.1

// query growth value for entry CN1CCN(Cc2ccc(NC(=O)c3cncc(C#Cc4cnc5ccc(N6CCSCC6)nn45)c3)cc2C(F)(F)F)CC1
-47.1

###

Test system: COLO 205 colon
measurementNotes: NCI-60 one-dose screen, 48 h (100 = growth as untreated, 0 = no growth, -100 = all killed)
testConditions: 10 µM unless noted
About 83,000 compounds went through this panel and 20% of them were active in at least one assay; those are over-represented in the sample as a whole. Activity calls are given as the source filed them. How the source made its calls: active means growth percent below 10; inactive means the rest.
Answer each item with its documented growth.

growth of C/C(=N\NC(N)=O)c1c(O)sc(=O)[nH]c1=O on COLO 205 colon?
108% (inactive)

growth of Cn1ccnc1C(=O)/C=C/c1ccc(NC(=O)Nc2ccccc2)cc1 on COLO 205 colon?
11.1% (inactive)

growth of CN(C)c1ccc(-c2c(NC(C)(C)C)nc3c(OCCc4ccccc4)cccn23)cc1 on COLO 205 colon?
-84.6% (active)

growth of COc1ccc(NC2=CC(=O)C(C)=C(C)C2=O)cc1 on COLO 205 colon?
107% (inactive)

growth of COc1cc(OC)c(C2C(Cl)C(=O)N2Nc2ncnc3ccccc23)cc1OC (stereo unspecified) on COLO 205 colon?
125% (inactive)

growth of Cc1cccc2sc(/N=C(\N)C(Br)Br)nc12 on COLO 205 colon?
27% (inactive)

growth of C/C(=N/NC(N)=S)c1ccc(Nc2nc(SCC(C)C)nc(-c3ccc(F)cc3)c2C#N)cc1 on COLO 205 colon?
16.8% (inactive)

growth of O=C(c1ccc(Cl)cc1)C1[C@H](c2ccc(Cl)cc2)[C@@H](c2ccccc2)NC12C(=O)Nc1ccc(Br)cc12 (stereo partly specified) on COLO 205 colon?
55.9% (inactive)

growth of CN(C)CCCOc1c2ccc(Cl)cc2nc2c1oc1ccccc12 on COLO 205 colon?
-59.3% (active)

growth of CC(=NNc1ncnc2ccccc12)c1ccc(S(C)(=O)=O)cc1 on COLO 205 colon?
113% (inactive)

growth of O=C(N/N=C/c1ccc([N+](=O)[O-])o1)c1[nH]c2ccc(Br)cc2c1-c1ccccc1 on COLO 205 colon?
5.51% (active)
